src = patent US7345070B2

Target: huPPARα (Homo sapiens)
Sequence (Q07869 1-468): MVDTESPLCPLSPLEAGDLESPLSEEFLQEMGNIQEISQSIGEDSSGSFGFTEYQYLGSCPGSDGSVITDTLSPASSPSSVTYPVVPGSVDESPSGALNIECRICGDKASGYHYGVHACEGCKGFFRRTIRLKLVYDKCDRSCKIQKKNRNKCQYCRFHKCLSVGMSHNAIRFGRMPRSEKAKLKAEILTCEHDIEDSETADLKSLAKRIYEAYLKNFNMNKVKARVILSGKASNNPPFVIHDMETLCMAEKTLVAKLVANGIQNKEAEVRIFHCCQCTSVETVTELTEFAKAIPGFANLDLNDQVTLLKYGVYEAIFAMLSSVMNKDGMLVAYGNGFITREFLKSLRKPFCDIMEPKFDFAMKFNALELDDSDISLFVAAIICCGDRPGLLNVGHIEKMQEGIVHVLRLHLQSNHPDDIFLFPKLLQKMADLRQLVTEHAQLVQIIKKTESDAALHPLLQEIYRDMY
Sequence (P19793 1-462 partner): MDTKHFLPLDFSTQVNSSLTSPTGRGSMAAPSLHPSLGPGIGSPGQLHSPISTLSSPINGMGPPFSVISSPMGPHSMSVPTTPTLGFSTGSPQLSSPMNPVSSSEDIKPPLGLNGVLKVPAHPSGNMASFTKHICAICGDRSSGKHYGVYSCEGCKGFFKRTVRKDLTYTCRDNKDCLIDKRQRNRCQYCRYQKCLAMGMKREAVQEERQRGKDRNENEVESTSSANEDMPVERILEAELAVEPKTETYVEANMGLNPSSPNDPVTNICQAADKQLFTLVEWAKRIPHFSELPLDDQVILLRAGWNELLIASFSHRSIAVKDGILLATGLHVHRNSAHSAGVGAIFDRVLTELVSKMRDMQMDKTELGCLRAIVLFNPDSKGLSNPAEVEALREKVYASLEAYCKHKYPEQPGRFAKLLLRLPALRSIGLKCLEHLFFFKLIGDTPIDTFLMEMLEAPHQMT
endpoint.name: IC50 (nM)

>  <compound>
Cc1oc(-c2cccs2)nc1CCOc1ccc(CC(C)(Oc2ccc(C(C)(C)C)cc2)C(=O)O)cc1 (stereo not shown)

>  <IC50 [nM]>
68

$$$$
>  <compound>
Cc1oc(C2CCCCC2)nc1CCOc1ccc(CC(C)(Oc2ccc3c(c2)OCO3)C(=O)O)cc1 (stereo not shown)

>  <IC50 [nM]>
76

$$$$
>  <compound>
Cc1oc(-c2cccs2)nc1CCOc1ccc(CC(C)(Oc2cccc(C(F)(F)F)c2)C(=O)O)cc1 (stereo not shown)

>  <IC50 [nM]>
78

$$$$
>  <compound>
Cc1oc(C2CCCCC2)nc1CCOc1ccc(CC(C)(Oc2ccc(C(C)(C)C)cc2)C(=O)O)cc1 (stereo not shown)

>  <IC50 [nM]>
72

$$$$

====

system: HuapoAI transgenic mice; assay: Evaluation of triglyceride and cholesterol level in HuapoAI transgenic mice; type: in vivo; conditions: Mus musculus, 168 h; human apoAI transgenic mice, 30 mg/kg oral gavage daily for 7 days, serum 3 h after dosing; read-out: Reduction in Triglyceride Serum Level
Known inhibition in vivo at 30 mg/kg of a selection of compounds
Give the value in % but do not write % after it.

Example results:
>  <compound>
Cc1oc(-c2cccs2)nc1CCOc1ccc(C[C@@](C)(Oc2ccccc2)C(=O)O)cc1 [Example 5]

>  <unit.spec>
%

>  <inhibition in vivo at 30 mg/kg>
19.7

$$$$
>  <compound>
Cc1oc(C2CCCCC2)nc1CCOc1ccc(CC(C)(Oc2ccc(F)c(F)c2)C(=O)O)cc1 (stereo not shown) [Example 58]

>  <unit.spec>
%

>  <inhibition in vivo at 30 mg/kg>
26.5

$$$$
>  <compound>
Cc1oc(C2CCCCC2)nc1CCOc1ccc(CC(C)(Oc2cccc(F)c2)C(=O)O)cc1 (stereo not shown) [Example 23]

>  <unit.spec>
%

>  <inhibition in vivo at 30 mg/kg>
52.5

$$$$
>  <compound>
Cc1oc(C2CCCCC2)nc1CCOc1ccc(CC(C)(Oc2ccc(C(F)(F)F)cc2)C(=O)O)cc1 (stereo not shown) [Example 52]

>  <unit.spec>
%

>  <inhibition in vivo at 30 mg/kg>
75.9

$$$$
>  <compound>
Cc1ccc(OC(C)(Cc2ccc(OCCc3nc(-c4cccs4)oc3C)cc2)C(=O)O)cc1 (stereo not shown) [Example 40]

>  <unit.spec>
%

>  <inhibition in vivo at 30 mg/kg>
77.6

$$$$
>  <compound>
Cc1cccc(OC(C)(Cc2ccc(OCCc3nc(C4CCCCC4)oc3C)cc2)C(=O)O)c1 (stereo not shown) [Example 62]

>  <unit.spec>
%

>  <inhibition in vivo at 30 mg/kg>
2.5

$$$$
>  <compound>
COc1cccc(OC(C)(Cc2ccc(OCCc3nc(C4CCCCC4)oc3C)cc2)C(=O)O)c1 (stereo not shown) [Example 76]

>  <unit.spec>
%

>  <inhibition in vivo at 30 mg/kg>
27.1

$$$$
>  <compound>
Cc1oc(-c2ccccc2)nc1CCOc1ccc(CC(C)(Oc2ccccc2)C(=O)O)cc1 (racemic) [Example 1]

>  <unit.spec>
%

>  <inhibition in vivo at 30 mg/kg>
41.3

$$$$
>  <compound>
Cc1oc(C2(C)CCCCC2)nc1CCOc1ccc(C[C@](C)(Oc2ccc(F)cc2)C(=O)O)cc1 [Example 67]

>  <unit.spec>
%

>  <inhibition in vivo at 30 mg/kg>
67.8

$$$$
>  <compound>
Cc1ccc(OC(C)(Cc2ccc(OCCc3nc(C4CCCCC4)oc3C)cc2)C(=O)O)cc1 (stereo not shown) [Example 41]

>  <unit.spec>
%

>  <inhibition in vivo at 30 mg/kg>
57.8

$$$$

Request: Fill in the blank: the reported inhibition in vivo at 30 mg/kg of Cc1oc(-c2cccs2)nc1CCOc1ccc(CC(C)(Oc2ccccc2)C(=O)O)cc1 (racemic) [Example 4] is ____.
Result: 58.3

Request: Fill in the blank: the reported inhibition in vivo at 30 mg/kg of Cc1oc(C2(C)CCCCC2)nc1CCOc1ccc(CC(C)(Oc2ccccc2)C(=O)O)cc1 (stereo not shown) [Example 9] is ____.
Result: 19.8

Request: Fill in the blank: the reported inhibition in vivo at 30 mg/kg of Cc1oc(-c2cccs2)nc1CCOc1ccc(CC(C)(Oc2ccc(C(F)(F)F)cc2)C(=O)O)cc1 (stereo not shown) [Example 51] is ____.
Result: 72.8

Request: Fill in the blank: the reported inhibition in vivo at 30 mg/kg of Cc1oc(-c2ccccc2)nc1CCOc1ccc(C[C@@](C)(Oc2ccccc2)C(=O)O)cc1 [Example 2] is ____.
Result: -12.9

Request: Fill in the blank: the reported inhibition in vivo at 30 mg/kg of Cc1oc(CCc2ccccc2)nc1CCOc1ccc(C[C@](C)(Oc2ccccc2)C(=O)O)cc1 [Example 86] is ____.
Result: 30.1

Request: Fill in the blank: the reported inhibition in vivo at 30 mg/kg of Cc1oc(-c2ccccc2)nc1CCOc1ccc(CC(C)(Oc2ccc3c(c2)OCO3)C(=O)O)cc1 (stereo not shown) [Example 78] is ____.
Result: 64.8
